# credit: PubChem BioAssay

test: growth suppression of beta-catenin knockout HCT116, pilot screen, human colon tumor cells (AID 823); settings: CellTiter-Glo, 60 h, at 10 µM, active compounds read low
Records with an inconclusive call do not appear.
Threshold check on viability: strictly below 90% is TRUE; on or above 90% is FALSE.

Worked set:
Cc1ccccc1N(CC(=O)NCCSCc1ccco1)S(C)(=O)=O :: FALSE
CCSCCOC(=O)C1=C(C)NC(=O)NC1c1ccccc1 (stereo unspecified) :: FALSE
NC(=O)c1cccc(S(=O)(=O)N2CC(c3ccccc3)CC2=O)c1 (stereo unspecified) :: FALSE
CCOC(=O)C1=C(C)OC(N)=C(C#N)C1c1c(C)nn(-c2ccccc2)c1Cl (stereo unspecified) :: FALSE
COc1cc(C(=O)Nc2nnc(C)s2)cc(OC)c1OC :: FALSE
COc1ccc(N2CCN(CCCNS(=O)(=O)c3ccc4c(c3)oc(=O)n4C)CC2)cc1 :: FALSE
O=C(CCS(=O)(=O)c1cccs1)N1CCCC1 :: FALSE
O=C(NC1CCN(Cc2ccccc2)CC1)C1CCN(c2nnc(-n3cccc3)s2)CC1 :: TRUE

IN: Consider `COc1ccc(-c2nc(-c3ccc(NC(=O)c4ccncc4)cc3)no2)cc1OC` . Does its viability lie strictly below 90%?
OUT: TRUE

IN: Please indicate whether the reported viability of `Cc1cc(NC(=O)CSCCc2ccncc2)no1` is strictly below 90%.
OUT: FALSE

IN: Given the entry `O=C(Cn1ncc2ccccc21)N1CCc2ccccc21` , would its reported viability be below 90%?
OUT: TRUE

IN: Quick check: viability of `COc1ccc(OCC(=O)N(C)Cc2ccccc2)cc1` under 90%?
OUT: FALSE

IN: Field: below-cutoff. Rule: recorded viability strictly less than 90%. Subject: `Cc1nc(SC(C)C)[nH]c(=O)c1Cc1ccccc1`
OUT: FALSE

IN: API: query returns whether the compound falls strictly under 90% in viability. Query: CC1CCCCN1S(=O)(=O)c1coc(C(N)=O)c1 (stereo unspecified)
OUT: FALSE

IN: Determine whether this compound shows viability lower than 90% (ties excluded): `COC(=O)CN(n1cnnc1)S(=O)(=O)c1ccccc1`
OUT: FALSE

IN: Bench note: check whether Cc1cc(NC(=O)CN2CCCCC2C)nc2c1c(=O)oc1ccccc12 (stereo unspecified) shows viability below 90%
OUT: FALSE
